Assay: in vitro
Details: human, hela cells, % viability
readout-type: viability at 28.5 h, 10 µM (%)
Give the value, in units of %, as a plain number.

Some molecules with known viability at 28.5 h, 10 µM results, for comparison:
CN(C)S(=O)(=O)Nc1ccccc1C(N)=O ... 111
CCOc1cc(/C=C(/C#N)C(N)=S)ccc1OCC(=O)N1CCCC1 ... 91.3

Entry CCCc1[nH]nc(O)c1CCc1ccc(Cl)cc1Cl ; viability at 28.5 h, 10 µM = 106

Entry Cc1ccc(N2C(=O)CSC23C(=O)Nc2ccccc23)cc1Br (centres unmarked) ; viability at 28.5 h, 10 µM = 104

Entry O=C(O)COc1cccc(NS(=O)(=O)c2ccc(Br)cc2)c1 ; viability at 28.5 h, 10 µM = 111
